Tested on: SF-268 CNS
protocol-notes: NCI tumour cell line growth inhibition, 48 h
Where a SMILES comes first, the peptide text is derived from it. Bridges are numbered along the chain shown (N, C = ends). [ ]: non-standard residue; d: D form. The star is where a group is joined. ξ: configuration not given here. X26 = O=C(/C=C/C=C/C=C/C=C/C=C/C(=O)*)NC1=C(O)CCC1=O; Pro(4R-Me) = C[C@H]1CN[C@H](C(=O)O)C1; NMeA = CN[C@@H](C)C(=O)O; ξF = NC(Cc1ccccc1)C(=O)O; ξA = CC(N)C(=O)O
# TGI per entry
observable: TGI

compound=Cc1ncc([N+](=O)[O-])n1CCn1ccnc1[N+](=O)[O-] value_observed="> 100 µM"
compound=COc1cccc(C2=C(c3cn(C)c4ccc(Cl)cc34)C(=O)NC2=O)c1 value_observed="> 25 µM"
compound=NC(N)=NS(=O)(=O)c1ccc(NC(=O)c2cccc3c(=O)c4ccccc4[nH]c23)cc1 value_observed="> 100 µM"
compound=CN=c1ssc(/N=C(\SC)N(C)C)[n+]1C value_observed="> 100 µM"
compound=CN(CCCNCc1ccccn1)Cc1ccccc1O value_observed="> 100 µM"
compound="CC1NC(=O)[C@H](C)N(C)C(=O)[C@@H]2CCCN2C(=O)[C@@H](NC(=O)C(Cc2ccccc2)NC(=O)/C=C/C=C/C=C/C=C/C=C/C(=O)NC2=C(O)CCC2=O)COC(=O)[C@@H]2C[C@@H](C)CN2C1=O (stereo partly drawn) (X26-[ξF]SP[NMeA][ξA][Pro(4R-Me)]; ester 2-C)" value_observed="> 100 µM"

###

Quick reference for TGI among some molecules
Test system: CAKI-1 renal
protocol-notes: NCI tumour cell line growth inhibition, 48 h
observable: TGI

molecule=NC1=NC(=O)[C@H](Cc2c[nH]c3ccccc23)N1C(=O)OCc1ccccc1 observable=TGI value_observed="> 100 µM"
molecule=COc1ccc2cc(C#Cc3ccc(-n4c(/C=C/c5cc(OC)c(OC)c(OC)c5)nc5ccccc5c4=O)c(C)c3)ccc2c1 observable=TGI value_observed="> 100 µM"
molecule=N#CC1(Nc2ccc(Br)cc2)CCCC1 observable=TGI value_observed="> 100 µM"
molecule=CCCCCCc1cc2c(C)c(C)c(=O)oc2cc1OCCCOc1cc2oc(=O)c(C)c(C)c2cc1CCCCCC observable=TGI value_observed="> 100 µM"
molecule=COC(=O)[C@]12CC[C@H]3CN(C(=O)OCc4ccccc4)[C@H]([C@H]31)[C@H](c1ccccc1)N2 observable=TGI value_observed="> 100 µM"
molecule="CC1CC[C@@]23CCC4(C)[C@@](C=CC5[C@@]6(C)CCC(=O)C(C)(C)C6CC[C@]54C)(OC2=O)[C@@H]3[C@H]1C (some centres undefined)" observable=TGI value_observed="> 100 µM"
molecule="COc1ccc(/C=C2/SC(c3ccc(Cl)cc3)N(NC(=O)CCCCCCCCC(=O)NN3C(=O)/C(=C\\c4ccc(OC)c(OC)c4)SC3c3ccc(Cl)cc3)C2=O)cc1OC (centres undefined)" observable=TGI value_observed="> 100 µM"
molecule=COC(=O)Cc1cc2c(cc1C(=O)c1ccc(N)cc1)OCO2 observable=TGI value_observed="> 100 µM"
molecule=CC[C@H](C)[C@H](NC(=O)c1ccccn1)C(=O)N(C)[C@H](C[C@@H](OC(C)=O)c1nc(C(=O)N[C@@H](Cc2ccccc2)C[C@H](C)C(=O)OC)cs1)C(C)C observable=TGI value_observed="> 100 µM"
molecule="COC(=O)C(Cc1c[nH]c2ccccc12)NP(=O)(O)OCC1OC(n2ccc(N)nc2=O)C(O)C1O (centres undefined)" observable=TGI value_observed="> 100 µM"
molecule=O=C1Nc2ccccc2/C1=C\c1c(-c2ccccc2)nc2ccccn12 observable=TGI value_observed="> 100 µM"
molecule=Cc1ccc(C(=O)N/N=C(\N=Nc2cccc([N+](=O)[O-])c2)c2ccc(N(C)C)cc2)cc1 observable=TGI value_observed="> 100 µM"
molecule=O=c1cc(-c2ccc3ccccc3c2)[nH]c2ncc(Cl)cc12 observable=TGI value_observed="> 100 µM"
molecule=c1ccc2c(c1)nnn2CN1CCOCC1 observable=TGI value_observed="> 100 µM"
molecule=Nc1ccc(S(=O)(=O)c2ccc(N)cc2)cc1 observable=TGI value_observed="> 100 µM"
molecule=CNC(=O)c1ccccc1Nc1cc(Nc2ccc(N3CCOCC3)cc2OC)ncc1C(F)(F)F observable=TGI value_observed="> 54.6 µM"
molecule=CCCCCCCCCCCCc1ccsc1-c1ccc(-c2ccc(-c3sc(-c4cc(CCCCCCCCCCCC)c(-c5ccc(-c6ccc(-c7sccc7CCCCCCCCCCCC)s6)s5)s4)cc3CCCCCCCCCCCC)s2)s1 observable=TGI value_observed="> 100 µM"
molecule=C1C[OH+]CC[OH+]CC[OH+]CC[OH+]CC[OH+]CC[OH+]1.[Cl-].[V] observable=TGI value_observed="> 100 µM"
molecule=CCn1c(O)c(C=Nc2ccccc2)s/c1=N/Nc1ncc(CC(=O)Nc2ccccc2C)s1 observable=TGI value_observed="> 100 µM"

###

In this section, each of the compounds is paired with its reported TGI.
Tested on: MDA-MB-435
protocol-notes: NCI tumour cell line growth inhibition, 48 h
Where a SMILES comes first, the peptide text is derived from it. [ ]: non-standard residue; d: D form.
observable: TGI (µM)

compound=COc1ccc2[nH]c3c(C)c4ccncc4c(C)c3c2c1 observable=TGI output_unit=µM limit_qualifier== value_observed=1.67
compound="CC1CC/C(=C\\c2ccc(F)cc2)C2=C1C(c1ccc(F)cc1)n1c(s/c(=C/c3cccc(Br)c3)c1=O)=N2 (stereo not given)" observable=TGI output_unit=µM limit_qualifier=> value_observed=100
compound="COc1cc2c(c(O)c1OC)C(=O)C1CCC(=O)N1C2c1cccc2ccccc12 (stereo not given)" observable=TGI output_unit=µM limit_qualifier=> value_observed=100
compound=O=c1[nH]c(=O)n(COCCOCc2ccccc2)cc1Nc1ccccc1 observable=TGI output_unit=µM limit_qualifier=> value_observed=100
compound="NC(N)=NCCC[C@H]1NC(=O)[C@@H](CCC(=O)O)NC(=O)[C@@H](CC(=O)O)NC(=O)[C@@H](CCC(=O)O)NC(=O)[C@H](Cc2c[nH]c3ccccc23)NC1=O (cyclo(W[dE][dD][dE][dR]))" observable=TGI output_unit=µM limit_qualifier=> value_observed=7.5
compound=O=c1[nH]nc(-c2ccccc2)n1/N=C\CC/C=N\n1c(-c2ccccc2)n[nH]c1=O observable=TGI output_unit=µM limit_qualifier== value_observed=60.8
compound=Clc1ccc(COc2ccccc2/C=N/c2c(-c3ccco3)nc3ccccn23)c(Cl)c1 observable=TGI output_unit=µM limit_qualifier== value_observed=49.1
compound=CCNCCCNc1c2ccccc2nc2ccccc12 observable=TGI output_unit=µM limit_qualifier== value_observed=1.77
compound="COC(=O)C12C3C4(C(=O)OC)C1C1(C(=O)OC)C2C3(C(=O)OC)C41C(=O)N(C(C)C)C(C)C (stereo not given)" observable=TGI output_unit=µM limit_qualifier=> value_observed=100
compound="NNC1=Nc2ccc(Cl)cc2C(=S)N2CSCC12 (stereo not given)" observable=TGI output_unit=µM limit_qualifier=> value_observed=100
compound=COc1ccc(-c2cn[nH]c2-c2cc(OC)c(OC)c(OC)c2)cc1OCc1ccccc1 observable=TGI output_unit=µM limit_qualifier== value_observed=3.91
compound=C[C@]12CC[C@@H]3c4ccc(O)cc4CC[C@H]3[C@@H]1CC[C@@H]2NS(=O)(=O)c1ccc(Cl)cc1 observable=TGI output_unit=µM limit_qualifier== value_observed=3.93
compound=COC(=O)c1oc([N+](=O)[O-])c(Cl)c1Cl observable=TGI output_unit=µM limit_qualifier== value_observed=14.6
compound=CC(C)(C)/C(O)=C\c1nc2ccc(C(F)(F)F)cc2[nH]c1=O observable=TGI output_unit=µM limit_qualifier=> value_observed=100
compound=NC1=NC(=O)[C@H](Cc2c[nH]c3ccccc23)N1C(=O)OCc1ccccc1 observable=TGI output_unit=µM limit_qualifier=> value_observed=100

###

The following molecules are listed with their measured TGI values.
System: HOP-62 NSCLC
protocol-notes: NCI tumour cell line growth inhibition, 48 h
observable: TGI

molecule="CC1CC/C(=C\\c2ccc(F)cc2)C2=C1C(c1ccc(F)cc1)n1c(s/c(=C/c3cccc(Br)c3)c1=O)=N2 (stereo not drawn)" observable=TGI value_observed="> 100 µM"
molecule=CCc1n[nH]c(=O)n1/N=C/c1ccc(/C=N/n2c(CC)n[nH]c2=O)cc1 observable=TGI value_observed="> 100 µM"
molecule=Cc1ccc(N=C2SC(=S)N(CCC[N+](C)(C)C)C2=Nc2ccc(C)cc2)cc1 observable=TGI value_observed="52.7 µM"
molecule=C=C(CBr)CCCOCc1ccccc1 observable=TGI value_observed="48.6 µM"
molecule=c1ccc2c(c1)nnn2CN1CCOCC1 observable=TGI value_observed="> 100 µM"
molecule="c1cc[n+](C2c3ccccc3C([n+]3ccccc3)c3ccccc32)cc1 (stereo not drawn)" observable=TGI value_observed="71.1 µM"
molecule="CC(C)(C)OC(=O)NCCC1SC2C=CC1C2 (stereo not drawn)" observable=TGI value_observed="> 100 µM"
molecule=Cc1nc2ccccc2nc1NNc1ccccc1 observable=TGI value_observed="86.6 µM"
